# MEASURED TARGET: FGFR1 IIIc (Homo sapiens)
# Construct: host or cells: Cos-1
# Sequence (P11362 22-822): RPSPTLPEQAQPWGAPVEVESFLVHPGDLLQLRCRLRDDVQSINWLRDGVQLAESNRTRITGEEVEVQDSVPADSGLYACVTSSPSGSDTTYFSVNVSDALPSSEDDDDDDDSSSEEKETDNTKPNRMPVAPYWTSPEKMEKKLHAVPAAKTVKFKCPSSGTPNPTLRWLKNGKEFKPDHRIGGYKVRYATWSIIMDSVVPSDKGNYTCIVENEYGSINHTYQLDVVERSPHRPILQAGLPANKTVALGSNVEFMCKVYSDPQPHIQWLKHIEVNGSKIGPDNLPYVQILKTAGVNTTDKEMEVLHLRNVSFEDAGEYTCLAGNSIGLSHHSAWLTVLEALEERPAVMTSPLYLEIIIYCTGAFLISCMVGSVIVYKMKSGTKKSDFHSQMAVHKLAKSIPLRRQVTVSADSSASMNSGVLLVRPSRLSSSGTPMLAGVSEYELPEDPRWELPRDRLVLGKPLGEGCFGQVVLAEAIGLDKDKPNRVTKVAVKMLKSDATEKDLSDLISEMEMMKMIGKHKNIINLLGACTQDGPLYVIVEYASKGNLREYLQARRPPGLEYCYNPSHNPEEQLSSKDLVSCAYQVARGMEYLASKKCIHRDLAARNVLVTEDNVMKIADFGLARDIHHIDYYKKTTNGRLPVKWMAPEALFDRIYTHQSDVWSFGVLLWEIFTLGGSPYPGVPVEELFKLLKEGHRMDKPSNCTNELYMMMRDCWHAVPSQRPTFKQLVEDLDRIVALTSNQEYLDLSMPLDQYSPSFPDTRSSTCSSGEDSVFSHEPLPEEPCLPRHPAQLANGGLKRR
# ASSAY NOTES: Cell based inhibition of transiently expressed FGFR1 IIIc phosphorylation (Cos-1 cells)
# TEST SETTINGS: Cos-1 cells, phospho-FGFR1; upper bound of bin; read-out: IC50
pIC50: −log10 of the molar value. Where a name gives a salt, the structure may show the parent alone.
VALUE TYPE: pIC50

Example entries begin here.
Cc1cc(CNc2nccc(Nc3cc(CCc4ccc5c(c4)OCO5)[nH]n3)n2)on1 [Example 54] : > 6.00
c1coc(CCc2cc(Nc3ccnc(NCc4cc(C5CC5)no4)n3)n[nH]2)c1 [Example 111] : > 6.00
Cc1cc(CNc2nccc(Nc3cc(OCc4cccc(Cl)c4)[nH]n3)n2)on1 [Example 93, hydrochloride] : > 6.00

Shift focus to the following entry.
Reported pIC50 (FGFR1 IIIc (Homo sapiens)) for entry Cc1cc(CNc2nccc(Nc3cc(CCc4cc(F)cc(Cl)c4)[nH]n3)n2)on1 [Example 57] is > 6.70

---

# MEASURED TARGET: FGFR1 kinase (Homo sapiens)
# Sequence (P11362 22-822): as above
# ASSAY NOTES: Kinase assay (using Caliper technology)
# Assay type: biochemical
# TEST SETTINGS: FGFR1 kinase, Caliper; upper bound of bin; read-out: IC50
pIC50: −log10 of the molar value. Counter-ions that a name gives are not always drawn.
pIC50 overview

Example entries begin here.
COc1cc(CCc2cc(Nc3ccnc(NCc4cc(C)no4)n3)n[nH]2)cc(OC)n1 : > 6.70
Cc1cc(CNc2nc(C)cc(Nc3cc(OC(C)C)[nH]n3)n2)on1 : > 6.70
Cc1cc(CNc2nccc(Nc3cc(CCc4cccc(OC(C)C)c4)[nH]n3)n2)on1 : > 6.00

The compound listed as c1cnc(-c2cc(CNc3nccc(Nc4cc(CCc5ccco5)[nH]n4)n3)on2)nc1 has a reported pIC50 of > 6.70

The compound listed as Cc1cc(CNc2nccc(Nc3cc(CCc4cccc(Oc5ncccn5)c4)[nH]n3)n2)on1 [Example 133, hydrochloride] has a reported pIC50 of > 6.70

The compound listed as CNC(=O)c1cc(CNc2nccc(Nc3cc(CCc4cccc(O)c4)n[nH]3)n2)on1 has a reported pIC50 of > 6.70

The compound listed as NC(=O)c1cc(CNc2nccc(Nc3cc(CCc4ccco4)n[nH]3)n2)on1 has a reported pIC50 of > 6.70

The compound listed as Cc1cc(CNc2nccc(Nc3cc(OCc4ccc(C(F)(F)F)cc4)[nH]n3)n2)on1 [Example 96, hydrochloride] has a reported pIC50 of > 5.00

The compound listed as CC(C)Oc1cc(Nc2ccnc(NCc3cc(C(=O)N(C)C)no3)n2)[nH]n1 has a reported pIC50 of > 6.00

The compound listed as Cc1cc(CNc2nccc(Nc3cc(CCc4ccccc4OCc4ccccc4)[nH]n3)n2)on1 [Example 39, hydrochloride] has a reported pIC50 of > 5.00

The compound listed as Cc1cc(CNc2nccc(Nc3cc(CCc4cc(F)cc(Cl)c4)[nH]n3)n2)on1 has a reported pIC50 of > 6.00

The compound listed as Cc1cc(CNc2nccc(Nc3cc(OCc4cccc(Cl)c4)[nH]n3)n2)on1 [Example 93, hydrochloride] has a reported pIC50 of > 6.00

The compound listed as COCCOc1cccc(CCc2cc(Nc3ccnc(NCc4cc(C)no4)n3)n[nH]2)c1 has a reported pIC50 of > 6.00

The compound listed as CC(C)Oc1cc(Nc2ccnc(NCc3cc(C4CCOC4)no3)n2)[nH]n1 (centres unmarked) has a reported pIC50 of > 6.00
